- System: cervix carcinoma (HeLa) cells
- TEST_METHOD_NOTES: MTT cytotoxicity assay, HeLa
- Format: cell-based, human
- CONDITION_CONTEXT: Homo sapiens, HeLa, 48 h, cancer cell, MTT, means of three independent experiments
pIC50: −log10 of the molar value.
A collection of compounds and their measured pIC50

{"COMPOUND": "Cc1cc(C)cc(NN=Nc2cccc(S(N)(=O)=O)c2)c1 [Compound L5]", "RESULT_OPERATOR": "=", "pIC50": 4.19}
{"COMPOUND": "COc1ccc(/N=N/Nc2cccc(S(N)(=O)=O)c2)cc1OC [Compound L4]", "RESULT_OPERATOR": "<", "pIC50": 3.52}
{"COMPOUND": "NS(=O)(=O)c1cccc(N/N=N/c2ccc(F)cc2)c1 [Compound L1]", "RESULT_OPERATOR": "=", "pIC50": 3.75}
{"COMPOUND": "COc1ccc(/N=N/Nc2cccc(S(N)(=O)=O)c2)cc1 [Compound L2, 3–(3-(4-methoxyphenyl)triaz-1-en-1-yl)]", "RESULT_OPERATOR": "=", "pIC50": 3.11}
{"COMPOUND": "NS(=O)(=O)c1cccc(N/N=N/c2ccc(C(=O)O)cc2)c1 [Compound L3]", "RESULT_OPERATOR": "<", "pIC50": 3.52}
{"COMPOUND": "O=c1[nH]cc(F)c(=O)[nH]1 [Compound 5-FU, 5-Fluorouracil, reference compound]", "RESULT_OPERATOR": "=", "pIC50": 4.72}
